tested_on: human NaV1.6 (Homo sapiens, UniProt Q9UQD0)
Construct: HEK-293 cell lines stably expressing human NaV1.6 (NP_055006) were used; expressed in transfected cells
Sequence (Q9UQD0 whole entry): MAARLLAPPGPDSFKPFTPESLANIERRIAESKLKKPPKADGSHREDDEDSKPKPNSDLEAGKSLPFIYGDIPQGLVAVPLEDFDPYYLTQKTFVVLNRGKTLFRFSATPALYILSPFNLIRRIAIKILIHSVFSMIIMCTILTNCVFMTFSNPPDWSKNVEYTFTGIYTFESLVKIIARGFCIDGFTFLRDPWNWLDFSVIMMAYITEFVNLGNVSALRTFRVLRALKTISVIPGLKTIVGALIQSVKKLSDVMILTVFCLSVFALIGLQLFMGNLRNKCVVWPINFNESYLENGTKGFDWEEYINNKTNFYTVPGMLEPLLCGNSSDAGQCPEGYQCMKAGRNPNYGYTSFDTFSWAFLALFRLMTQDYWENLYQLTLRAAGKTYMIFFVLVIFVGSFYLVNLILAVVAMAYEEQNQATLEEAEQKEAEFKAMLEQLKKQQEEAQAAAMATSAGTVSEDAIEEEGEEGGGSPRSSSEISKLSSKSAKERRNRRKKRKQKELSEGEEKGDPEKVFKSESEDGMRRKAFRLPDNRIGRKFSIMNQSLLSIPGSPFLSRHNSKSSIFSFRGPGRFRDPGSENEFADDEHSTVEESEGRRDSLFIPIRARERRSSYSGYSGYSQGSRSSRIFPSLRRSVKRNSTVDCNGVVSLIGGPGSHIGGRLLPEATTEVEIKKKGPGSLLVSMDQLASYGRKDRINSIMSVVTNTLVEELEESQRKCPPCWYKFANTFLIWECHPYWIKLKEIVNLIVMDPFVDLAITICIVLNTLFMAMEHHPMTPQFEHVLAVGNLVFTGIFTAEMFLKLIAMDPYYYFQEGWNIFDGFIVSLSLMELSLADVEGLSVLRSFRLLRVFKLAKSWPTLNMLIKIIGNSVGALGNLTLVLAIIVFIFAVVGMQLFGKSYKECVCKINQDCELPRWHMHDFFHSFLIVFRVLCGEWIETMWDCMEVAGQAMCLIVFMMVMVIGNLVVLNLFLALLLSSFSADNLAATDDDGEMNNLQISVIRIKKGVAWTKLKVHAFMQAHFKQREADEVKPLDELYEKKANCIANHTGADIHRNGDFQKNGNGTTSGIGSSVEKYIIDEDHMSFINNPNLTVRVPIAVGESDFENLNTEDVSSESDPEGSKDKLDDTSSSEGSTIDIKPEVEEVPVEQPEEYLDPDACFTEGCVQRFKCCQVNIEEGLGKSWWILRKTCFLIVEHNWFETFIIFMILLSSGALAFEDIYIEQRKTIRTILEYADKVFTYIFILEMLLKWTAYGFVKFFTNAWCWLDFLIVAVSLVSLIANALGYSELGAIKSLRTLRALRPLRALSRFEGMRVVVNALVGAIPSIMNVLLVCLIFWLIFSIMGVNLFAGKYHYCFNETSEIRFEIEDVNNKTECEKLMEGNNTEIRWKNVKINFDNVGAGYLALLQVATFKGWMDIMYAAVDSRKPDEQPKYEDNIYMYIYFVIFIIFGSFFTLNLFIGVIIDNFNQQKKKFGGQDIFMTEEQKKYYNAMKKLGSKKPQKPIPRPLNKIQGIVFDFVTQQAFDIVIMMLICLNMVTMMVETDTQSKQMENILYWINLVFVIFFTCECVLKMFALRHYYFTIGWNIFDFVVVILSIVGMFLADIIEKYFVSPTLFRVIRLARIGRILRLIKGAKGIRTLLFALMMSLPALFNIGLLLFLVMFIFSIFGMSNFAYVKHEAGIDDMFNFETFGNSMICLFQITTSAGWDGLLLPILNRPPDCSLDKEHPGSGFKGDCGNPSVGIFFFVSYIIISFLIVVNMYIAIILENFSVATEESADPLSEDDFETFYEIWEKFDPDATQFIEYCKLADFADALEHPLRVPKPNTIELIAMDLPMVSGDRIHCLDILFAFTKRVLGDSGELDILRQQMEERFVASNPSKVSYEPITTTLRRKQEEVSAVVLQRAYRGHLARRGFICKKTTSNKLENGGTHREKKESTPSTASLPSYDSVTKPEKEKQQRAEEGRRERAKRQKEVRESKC
experimental_protocol: Peak INa use-dependent block (UDB-10 Hz), automated patch clamp in HEK cells
Format: cell-based
condition_context: use-dependent block 10 Hz
measurement_label: Peak INa UDB-10 Hz Hill slope

Completed entries (count: 5):
> print(dat)
                                   compound              measurement.label  reported.measurement
1             Nc1nnc(-c2cccc(Cl)c2Cl)c(N)n1  Peak INa UDB-10 Hz Hill slope                 (1.0)
2  CCOC(F)(F)c1nnc2ccc(-c3cnc(OCC(F)(F)F)c(F)c3)cn12  Peak INa UDB-10 Hz Hill slope                 (0.7)
3  NC(=O)N1c2ccccc2C=Cc2ccccc21 [Carbamazepine, carbamazepine]  Peak INa UDB-10 Hz Hill slope                 (0.9)
4         O=C1NC(=O)C(c2ccccc2)(c2ccccc2)N1  Peak INa UDB-10 Hz Hill slope                 (0.6)
5  NC(=O)O[C@@H](Cn1ncnn1)c1ccccc1Cl [Cenobamate, cenobamate]  Peak INa UDB-10 Hz Hill slope                 (0.7)

For COC[C@@H](NC(C)=O)C(=O)NCc1ccccc1 [Lacosamide, lacosamide] the compound record lists Peak INa UDB-10 Hz Hill slope as (1.3)
